- protocol-notes: recombinant barcode read abundance after kanamycin selection (control-corrected) (log10(CPM+1)); higher = more efficient recombination; sequences stand for … in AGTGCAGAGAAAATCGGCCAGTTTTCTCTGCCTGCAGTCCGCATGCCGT…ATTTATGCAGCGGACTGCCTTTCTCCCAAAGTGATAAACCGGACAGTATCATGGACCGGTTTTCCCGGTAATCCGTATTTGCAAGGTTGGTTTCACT; site = the 11-nt target
observable: recombinant barcode read abundance (log10)
Number only, please.

Q: Look at this sequence and give its reported recombinant barcode read abundance (log10). GCGGGACCGTGGGTTCTAACCTGTTGCCTCG [GCGGGACCTAG_LTGcore_CG_RTGcore_CG] (site GCGGGACCTAG) (LTG core: CG, RTG core: CG)
Result: 0.248

Q: Look at this sequence and give its reported recombinant barcode read abundance (log10). ATGTCCCGGTGGGTTCTAACCTGTTGCTCAG [ATGTCCCCTGA_LTGcore_GG_RTGcore_CT] (site ATGTCCCCTGA) (LTG core: GG, RTG core: CT)
Result: 0.294

Q: Look at this sequence and give its reported recombinant barcode read abundance (log10). ATGTCCCGATGGGTTCTAACCTGTTGCTCAG [ATGTCCCCTGA_LTGcore_GA_RTGcore_CT] (site ATGTCCCCTGA) (LTG core: GA, RTG core: CT)
Result: 0.647

Q: Look at this sequence and give its reported recombinant barcode read abundance (log10). GAGGCCTCTTGGGTTCTAACCTGTTGCCACC [GAGGCCTCTTG_LTGcore_CT_RTGcore_GG] (site GAGGCCTCTTG) (LTG core: CT, RTG core: GG)
Result: 0.236

Q: Look at this sequence and give its reported recombinant barcode read abundance (log10). GGACACCGATGGGTTCTAACCTGTTGCCTAG [GGACACCCTAG_LTGcore_GA_RTGcore_CT] (site GGACACCCTAG) (LTG core: GA, RTG core: CT)
Result: 0.0895

Q: Look at this sequence and give its reported recombinant barcode read abundance (log10). ATGCTTTGCTGGGTTCTAACCTGTTGCCTAG [ATGCTTTCTAG_LTGcore_GC_RTGcore_CT] (site ATGCTTTCTAG) (LTG core: GC, RTG core: CT)
Result: 0.0505

Q: Look at this sequence and give its reported recombinant barcode read abundance (log10). CGCGCCCATTGGGTTCTAACCTGTTGCGGAG [CGCGCCCCTCC_LTGcore_AT_RTGcore_CT] (site CGCGCCCCTCC) (LTG core: AT, RTG core: CT)
Result: 0.0641

Q: Look at this sequence and give its reported recombinant barcode read abundance (log10). AGGAGGTGTTGGGTTCTAACCTGTTGCCTAG [AGGAGGTCTAG_LTGcore_GT_RTGcore_CT] (site AGGAGGTCTAG) (LTG core: GT, RTG core: CT)
Result: 0

Q: Look at this sequence and give its reported recombinant barcode read abundance (log10). GCGGGACTTTGGGTTCTAACCTGTTGCCTAA [GCGGGACCTAG_LTGcore_TT_RTGcore_TT] (site GCGGGACCTAG) (LTG core: TT, RTG core: TT)
Result: 0.186

Q: Look at this sequence and give its reported recombinant barcode read abundance (log10). AAACAGTATTGGGTTCTAACCTGTTGCCTAT [AAACAGTCTAG_LTGcore_AT_RTGcore_AT] (site AAACAGTCTAG) (LTG core: AT, RTG core: AT)
Result: 0.204

Q: Look at this sequence and give its reported recombinant barcode read abundance (log10). GAGGCCTCTTGGGTTCTAACCTGTTGCCAAA [GAGGCCTCTTG_LTGcore_CT_RTGcore_TT] (site GAGGCCTCTTG) (LTG core: CT, RTG core: TT)
Result: 0.822

Q: Look at this sequence and give its reported recombinant barcode read abundance (log10). GCGCGACTTTGGGTTCTAACCTGTTGCTTAA [GCGCGACCTAA_LTGcore_TT_RTGcore_TT] (site GCGCGACCTAA) (LTG core: TT, RTG core: TT)
Result: 0.108

Q: Look at this sequence and give its reported recombinant barcode read abundance (log10). GAGTCCAGCTGGGTTCTAACCTGTTGCGTGC [GAGTCCACTAC_LTGcore_GC_RTGcore_GC] (site GAGTCCACTAC) (LTG core: GC, RTG core: GC)
Result: 0.174

Q: Look at this sequence and give its reported recombinant barcode read abundance (log10). CATATTAACTGGGTTCTAACCTGTTGCCTAG [CATATTACTAG_LTGcore_AC_RTGcore_CT] (site CATATTACTAG) (LTG core: AC, RTG core: CT)
Result: 0.441

Q: Look at this sequence and give its reported recombinant barcode read abundance (log10). GAGTCCTAATGGGTTCTAACCTGTTGCCTAG [GAGTCCTCTAG_LTGcore_AA_RTGcore_CT] (site GAGTCCTCTAG) (LTG core: AA, RTG core: CT)
Result: 0.149

Q: Look at this sequence and give its reported recombinant barcode read abundance (log10). TCTACCCCTTGGGTTCTAACCTGTTGCTGAG [TCTACCCCTCA_LTGcore_CT_RTGcore_CT] (site TCTACCCCTCA) (LTG core: CT, RTG core: CT)
Result: 0.783

Q: Look at this sequence and give its reported recombinant barcode read abundance (log10). TCGCGACTGTGGGTTCTAACCTGTTGCCGAG [TCGCGACCTCG_LTGcore_TG_RTGcore_CT] (site TCGCGACCTCG) (LTG core: TG, RTG core: CT)
Result: 0.302

Q: Look at this sequence and give its reported recombinant barcode read abundance (log10). GCGCGACAGTGGGTTCTAACCTGTTGCTTCT [GCGCGACCTAA_LTGcore_AG_RTGcore_AG] (site GCGCGACCTAA) (LTG core: AG, RTG core: AG)
Result: 0.313

Q: Look at this sequence and give its reported recombinant barcode read abundance (log10). TGTATTCCATGGGTTCTAACCTGTTGCCTAG [TGTATTCCTAG_LTGcore_CA_RTGcore_CT] (site TGTATTCCTAG) (LTG core: CA, RTG core: CT)
Result: 0.0466

Q: Look at this sequence and give its reported recombinant barcode read abundance (log10). CGCGCCCCTTGGGTTCTAACCTGTTGCGGGC [CGCGCCCCTCC_LTGcore_CT_RTGcore_GC] (site CGCGCCCCTCC) (LTG core: CT, RTG core: GC)
Result: 0.592

Q: Look at this sequence and give its reported recombinant barcode read abundance (log10). GTCGCCCCTTGGGTTCTAACCTGTTGCTACG [GTCGCCCCTTA_LTGcore_CT_RTGcore_CG] (site GTCGCCCCTTA) (LTG core: CT, RTG core: CG)
Result: 0.323

Q: Look at this sequence and give its reported recombinant barcode read abundance (log10). GGCTCCCTATGGGTTCTAACCTGTTGCGGTA [GGCTCCCCTCC_LTGcore_TA_RTGcore_TA] (site GGCTCCCCTCC) (LTG core: TA, RTG core: TA)
Result: 0.201

Source: the supplement of paper PMC11208160
